Data provenance is patent US20130030017A1.

# Test system: Staphylococcus aureus (ATCC29213)
# TEST_SUMMARY: Microtitre plate assay, IC90 determination (STA 29213)
# Type: cell-based
# MEASUREMENT_SETUP: Staphylococcus aureus, ATCC29213, 24 h, 90% inhibitory concentration for bacterial growth, 37° C., resazurin fluorescence
ATTRIBUTE_MEASURED: IC90 (µg/mL)
The answer is to be given in µg/mL; state only the numeric part.

Look over these answered cases.
{"COMPOUND": "COc1nc2ccc(C)cc2cc1C(c1ccccc1)C(O)(CCc1ccccc1)CCN(C)C (stereo not shown) [Compound 1]", "ATTRIBUTE_MEASURED": "IC90", "ASSAY_VALUE": 9.4}
{"COMPOUND": "COc1nc2ccccc2cc1C(c1ccccc1)C(O)(CCc1ccccc1)CCN(C)C (stereo not shown) [Compound 12]", "ATTRIBUTE_MEASURED": "IC90", "ASSAY_VALUE": 10.2}
{"COMPOUND": "CSc1nc2ccc(Br)cc2cc1C(c1ccccc1)C(O)(CCc1ccccc1)CCN(C)C (stereo not shown) [Compound 10]", "ATTRIBUTE_MEASURED": "IC90", "ASSAY_VALUE": 13.8}
{"COMPOUND": "COc1ccc(C(c2cc3cc(Br)ccc3nc2OC)C(O)(CCc2ccc(F)cc2)CCN(C)C)cc1 (stereo not shown) [Compound 84]", "ATTRIBUTE_MEASURED": "IC90", "ASSAY_VALUE": 4.6}
{"COMPOUND": "COc1nc2ccc(Br)cc2cc1C(c1ccc(Cl)cc1)C(O)(CCc1ccc(C(F)(F)F)cc1)CCN(C)C (stereo not shown) [Compound 89]", "ATTRIBUTE_MEASURED": "IC90", "ASSAY_VALUE": 22.6}
{"COMPOUND": "CN(C)CCC(O)(CCc1ccccc1)C(c1ccc(Cl)cc1)c1cc2cc(Br)ccc2nc1N(C)C (stereo not shown) [Compound 33]", "ATTRIBUTE_MEASURED": "IC90", "ASSAY_VALUE": 1.8}
{"COMPOUND": "COc1ccccc1CCC(O)(CCN(C)C)C(c1ccc(Cl)cc1)c1cc2cc(Br)ccc2nc1OC (stereo not shown) [Compound 88]", "ATTRIBUTE_MEASURED": "IC90", "ASSAY_VALUE": 9.5}
{"COMPOUND": "CNCCC(O)(CCc1ccc(F)cc1)C(c1ccccc1)c1cc2ccccc2nc1OC (stereo not shown) [Compound 37]", "ATTRIBUTE_MEASURED": "IC90", "ASSAY_VALUE": 2.9}

// query Quick one: IC90 for COc1nc2ccc(Cl)cc2cc1C(c1ccccc1)C(O)(CCc1ccccc1)CCN(C)C (stereo not shown) [Compound 9] ?
// result 24.5

// query Can you handle COc1nc2ccc(Br)cc2cc1C(c1ccc(Cl)cc1)C(O)(CCc1ccc(Cl)cc1)CCN(C)C (stereo not shown) [Compound 76] next?
// result 2.1

// query Can you handle COc1nc2ccc(Br)cc2cc1C(c1ccc(Cl)cc1)C(O)(CCc1ccccc1)CCN(C)C (stereo not shown) [Compound 69] next?
// result 1.8

// query Can you handle COc1nc2ccc(Br)cc2cc1C(c1cccc(Cl)c1)C(O)(CCc1ccccc1)CCN(C)C (stereo not shown) [Compound 68] next?
// result 2.3
